- Test system: PXR homodimer (NR concentration 270 nM)
- test.method.notes: PBM binding z-score (relative to random genomic background probes); higher = stronger binding; sequences stand for … in GC…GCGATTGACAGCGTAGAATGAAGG
measured.quantity: PBM binding z-score

| seq.text | system | measured.quantity | measured |
| --- | --- | --- | --- |
| TCGAGTAGGTAAGTCGGGGCATTCAGCCAACATA | PXR homodimer (NR concentration 270 nM) | PBM binding z-score | -0.436 |
| TCTGCTAGGTCAGTTGTTCAGCTAACGAGCTGCC | PXR homodimer (NR concentration 270 nM) | PBM binding z-score | -1.04 |
| TAGCCTAGGTCATTGGCCCAGTATAGTACGCATC | PXR homodimer (NR concentration 270 nM) | PBM binding z-score | -0.0601 |
| AGCACGAGGGCACGCTGAGTTGATAGCAGAGTAG | PXR homodimer (NR concentration 270 nM) | PBM binding z-score | 0.313 |
| CGTCAAAGTTCAAGGTACCGTAACAGAAAGCAGC | PXR homodimer (NR concentration 270 nM) | PBM binding z-score | 2.46 |
| GGAACGAGGGCAAGGTGATAGCAGAGTTTGATGG | PXR homodimer (NR concentration 270 nM) | PBM binding z-score | 1.06 |
| CCTTACGGGTCACTGACACGTTATAGCATTTGGA | PXR homodimer (NR concentration 270 nM) | PBM binding z-score | 0.171 |
| TCTATTAGTTGAAGGGCTACCGACGAGTCCGTTT | PXR homodimer (NR concentration 270 nM) | PBM binding z-score | 0.375 |
| TGAAGGAGGTTAAAGATCAGGGAACGTGGCGTCG | PXR homodimer (NR concentration 270 nM) | PBM binding z-score | 0.472 |
| CCTACTGGTCCATCAGGTCATTGATATCAACGTT | PXR homodimer (NR concentration 270 nM) | PBM binding z-score | 1.32 |
| CCTAGTTGGGCAAGGTCACACACGCTATAGGTAC | PXR homodimer (NR concentration 270 nM) | PBM binding z-score | 1.13 |
| TCGAGTAGGTTAGTAGGGGCATTCAGCCAACATA | PXR homodimer (NR concentration 270 nM) | PBM binding z-score | 0.000181 |
| CCTATCAGTTGACCATAAGGGCAACCGAAGCTCG | PXR homodimer (NR concentration 270 nM) | PBM binding z-score | 0.186 |
| TCTTGTAGATCAGCAGGTTAAGTAAGCTGGCCAA | PXR homodimer (NR concentration 270 nM) | PBM binding z-score | -0.355 |
| TCTATTAGTTGATTAGGGCACCCGAAACAGCGGA | PXR homodimer (NR concentration 270 nM) | PBM binding z-score | 0.671 |
| TAGCCTAGTTCATTGGGCCAGTATAGTACGCATC | PXR homodimer (NR concentration 270 nM) | PBM binding z-score | 0.651 |
| ACTAGCTGGCCAAGTTTGGGTCACTCAAACAAAG | PXR homodimer (NR concentration 270 nM) | PBM binding z-score | -0.487 |
| GTACCAAGGTGAATAGGTCGTTGAGGAGTAGGCG | PXR homodimer (NR concentration 270 nM) | PBM binding z-score | 0.0954 |
| ATCTCTAGGTAAGACTCACTTCAGTGAAGAACGC | PXR homodimer (NR concentration 270 nM) | PBM binding z-score | 0.171 |
| ATACCAGGGTGATCGTGAGGTCGTTGATACTAAC | PXR homodimer (NR concentration 270 nM) | PBM binding z-score | 1.47 |
| ATCGAAAGGTCGACGAGGCGAGTATACACCGTTT | PXR homodimer (NR concentration 270 nM) | PBM binding z-score | 0.0107 |
| GCTATTAGTTCAAAGGGCAACCGAATGATTCTCG | PXR homodimer (NR concentration 270 nM) | PBM binding z-score | 1.29 |
| CCGACTGCGGCAAGGTTACCATAACGCACAGCCA | PXR homodimer (NR concentration 270 nM) | PBM binding z-score | 0.00644 |
| TCATATAGGTAATACAGGCGAAAGTCGGCATCTA | PXR homodimer (NR concentration 270 nM) | PBM binding z-score | 0.00877 |
| TCTAGCAGGCCAGAGGGTCAGTCAAGAGGTACGG | PXR homodimer (NR concentration 270 nM) | PBM binding z-score | -0.829 |
| TGTCAAAGTTCAAAGGGAACGTAAGTATCCACAC | PXR homodimer (NR concentration 270 nM) | PBM binding z-score | 4.8 |

Data provenance: the supplement of paper PMC6555819
